procedure details: Compound is evaluated for inhibition of aspartate transcarbamoylase (ATCase).
Parameters: species or system Escherichia coli

- compound: "O=C(O)CC(SCP(=O)(O)O)C(=O)O (stereo unspecified)"
  Ki: "1.1 mM"
